Molecular target: Serotonin N-acetyltransferase (Ovis aries)
Conditions: at 100 µM
Description: Inhibition of ovine AANAT at 100 uM by TLC-based radioactive assay
quantity: inhibition (%)
Answer format: numeric, % implied, no suffix.

Example cases with answers are listed next.
compound | inhibition (%)
O=C(O)CCCCCN1C(=O)C(C2C(=O)N(Cc3ccc(F)cc3)c3ccccc32)SC1=S (configuration not stated) | 98
O=C(O)COc1ccc(/C=N/NC(=O)c2ccc(OCc3ccccc3)cc2)cc1 | 74
O=C(O)CCCCCN1C(=O)C(C2C(=O)Nc3ccccc32)SC1=S (configuration not stated) | 94
O=C(CN1C(=O)C(C2SC(=S)N(CCS(=O)(=O)O)C2=O)c2ccccc21)Nc1ccccc1 (configuration not stated) | 99
COc1ccc(/C=N/c2ccc(CC(=O)O)cc2)cc1 | 13
CCOc1ccc(C(=O)CC(=O)Nc2ccc(S(=O)(=O)F)cc2)cc1OC | 31

Query: Which inhibition reading was recorded for the compound Cc1ccc(CN2C(=O)C(C3SC(=S)N(CCS(=O)(=O)O)C3=O)c3ccccc32)cc1 (configuration not stated) ?
Reply: 99

---

Target: Serotonin N-acetyltransferase (Ovis aries, UniProt Q29495)
Assay: Inhibition of ovine AANAT by TLC-based radioactive assay
quantity: pIC50
When answering, recall that pIC50 equals minus log10 of the concentration in mol/L, and write that number alone.

Query: Can you share its pIC50? I mean this compound: O=C(O)CCCCCN1C(=O)C(C2C(=O)N(Cc3ccc(F)cc3)c3ccccc32)SC1=S (stereo unspecified)
Reply: 4.95

---

Target: Serotonin N-acetyltransferase (Ovis aries) (UniProt Q29495)
Sequence (Q29495 whole entry): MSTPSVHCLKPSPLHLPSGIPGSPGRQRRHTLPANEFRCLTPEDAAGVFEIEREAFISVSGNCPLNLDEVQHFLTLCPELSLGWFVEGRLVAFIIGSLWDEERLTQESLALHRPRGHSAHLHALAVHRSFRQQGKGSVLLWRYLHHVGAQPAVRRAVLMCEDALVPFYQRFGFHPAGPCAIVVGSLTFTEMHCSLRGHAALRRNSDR
Conditions: at 100 µM
Description: Inhibition of ovine AANAT at 100 uM by spectrophotometric assay
Each entry below lists one item and its recorded inhibition value.
Please provide the amount together with its unit, number first.

compound | inhibition
COC(=O)Nc1ccc(S(=O)(=O)Nc2cc(OC)nc(OC)n2)cc1 | 42%
COc1ccc(/N=N/c2ccc(S(=O)(=O)O)cc2)cc1 | 65%
O=C(O)CCCCCN1C(=O)C(C2C(=O)Nc3ccccc32)SC1=S (stereo not given) | 100%

Query: Fill in the blank: the reported inhibition of O=C(COc1ccc([N+](=O)[O-])cc1)N/N=C/c1ccccc1COc1ccccc1 is ____.
Reply: 40%

Query: Could you share which inhibition value was measured for O=C(O)CCCCCN1C(=O)C(C2C(=O)N(Cc3ccc(F)cc3)c3ccccc32)SC1=S (stereo not given) ?
Reply: 81%

Query: Which inhibition is reported for this compound? O=C(CN1C(=O)C(C2SC(=S)N(CCS(=O)(=O)O)C2=O)c2ccccc21)Nc1ccccc1 (stereo not given)
Reply: 99%

Query: Param item = CCOc1ccc(C(=O)CC(=O)Nc2ccc(S(=O)(=O)F)cc2)cc1OC ; retrieve measured inhibition.
Reply: 98%

Query: State the recorded inhibition for this entry: COc1ccc(/C=N/c2ccc(CC(=O)O)cc2)cc1
Reply: 41%

Query: Sample O=C1CC(CC(=O)N/N=C/c2c(O)ccc3ccccc23)=NN1 — what was its inhibition?
Reply: 50%

Query: Dear colleague, I am looking for the recorded inhibition of the following compound: Cc1ccc(CN2C(=O)C(C3SC(=S)N(CCS(=O)(=O)O)C3=O)c3ccccc32)cc1 (stereo not given)
Reply: 84%

---

Reported IC50 values for the following molecules.
Target: Serotonin N-acetyltransferase (Ovis aries, UniProt Q29495)
Assay: Inhibition of ovine AANAT by spectrophotometric assay
# unit: µM | format: bare number

Consider the worked cases shown below.
molecule | IC50 [µM]
O=C(CN1C(=O)C(C2SC(=S)N(CCS(=O)(=O)O)C2=O)c2ccccc21)Nc1ccccc1 (stereo not given) | 15.8
O=C(O)CCCCCN1C(=O)C(C2C(=O)N(Cc3ccc(F)cc3)c3ccccc32)SC1=S (stereo not given) | 45.2
Cc1ccc(CN2C(=O)C(C3SC(=S)N(CCS(=O)(=O)O)C3=O)c3ccccc32)cc1 (stereo not given) | 25.2
O=C(O)COc1ccc(/C=N/NC(=O)c2ccc(OCc3ccccc3)cc2)cc1 | 402

Query: Please look up its IC50: O=C(O)CCCCCN1C(=O)C(C2C(=O)Nc3ccccc32)SC1=S (stereo not given)
Reply: 52.9

---

Listing: inhibition of selected compounds
Target: UniProt Q29495
Assay: Inhibition of ovine AANAT at 25 uM by alpha-KD-coupled spectrophotometric assay
Supply the numeric figure in %, leaving out any unit text.

Use the examples below as a reference point.
chem_smiles | inhibition / %
O=C(O)CCCN1C(=O)/C(=C2/C(=O)Nc3ccc(Br)cc32)SC1=S | 21
COc1ccc(NC(=O)CN2C(=O)/C(=C3\SCN(CCS(=O)(=O)O)C3=O)c3ccccc32)cc1 | 56
CC(C)Oc1ccc(C(=O)CC(=O)Nc2ccc(S(=O)(=O)F)cc2)cc1 | 0
CCc1ccc(/C=N/c2c(C)n(C)n(-c3ccccc3)c2=O)cc1 | 47

Let us move to another entry and its inhibition.
Query: inhibition lookup needed for O=C(O)CCCCCN1C(=O)/C(=C2/C(=O)N(CC(=O)O)c3ccc(Br)cc32)SC1=S , thanks.
Reply: 11

---

Target: Serotonin N-acetyltransferase (Ovis aries)
Conditions: at 100 µM
quantity: inhibition (%)
Give the number; % is assumed, so skip it.

Sample records with inhibition:
compound | inhibition (%)
O=C(CN1C(=O)C(C2SC(=S)N(CCS(=O)(=O)O)C2=O)c2ccccc21)Nc1ccccc1 (stereo not given) | 80
O=C(O)CCCCCN1C(=O)C(C2C(=O)Nc3ccccc32)SC1=S (stereo not given) | 83

Query: For the compound O=C(COc1ccc([N+](=O)[O-])cc1)N/N=C/c1ccccc1COc1ccccc1 , what inhibition is on record?
Reply: 11

Query: Given the compound COc1ccc(/C=N/c2ccc(CC(=O)O)cc2)cc1 , what is its reported inhibition?
Reply: 30

Query: Record request: inhibition value, item COC(=O)Nc1ccc(S(=O)(=O)Nc2cc(OC)nc(OC)n2)cc1
Reply: 24

Query: Tell me the measured inhibition of O=C(O)CCCCCN1C(=O)C(C2C(=O)N(Cc3ccc(F)cc3)c3ccccc32)SC1=S (stereo not given) , please.
Reply: 74

Query: Please report the recorded inhibition for Cc1ccc(CN2C(=O)C(C3SC(=S)N(CCS(=O)(=O)O)C3=O)c3ccccc32)cc1 (stereo not given) .
Reply: 98

Query: Reported inhibition, compound CCOc1ccc(C(=O)CC(=O)Nc2ccc(S(=O)(=O)F)cc2)cc1OC : ____
Reply: 100

Query: Given O=C1CC(CC(=O)N/N=C/c2c(O)ccc3ccccc23)=NN1 , state its recorded inhibition.
Reply: 23

Query: Which inhibition is listed for COc1ccc(/N=N/c2ccc(S(=O)(=O)O)cc2)cc1 ?
Reply: 60
